MEASURED ON: human TLR9 (Homo sapiens)
Sequence (Q9NR96 26-1032): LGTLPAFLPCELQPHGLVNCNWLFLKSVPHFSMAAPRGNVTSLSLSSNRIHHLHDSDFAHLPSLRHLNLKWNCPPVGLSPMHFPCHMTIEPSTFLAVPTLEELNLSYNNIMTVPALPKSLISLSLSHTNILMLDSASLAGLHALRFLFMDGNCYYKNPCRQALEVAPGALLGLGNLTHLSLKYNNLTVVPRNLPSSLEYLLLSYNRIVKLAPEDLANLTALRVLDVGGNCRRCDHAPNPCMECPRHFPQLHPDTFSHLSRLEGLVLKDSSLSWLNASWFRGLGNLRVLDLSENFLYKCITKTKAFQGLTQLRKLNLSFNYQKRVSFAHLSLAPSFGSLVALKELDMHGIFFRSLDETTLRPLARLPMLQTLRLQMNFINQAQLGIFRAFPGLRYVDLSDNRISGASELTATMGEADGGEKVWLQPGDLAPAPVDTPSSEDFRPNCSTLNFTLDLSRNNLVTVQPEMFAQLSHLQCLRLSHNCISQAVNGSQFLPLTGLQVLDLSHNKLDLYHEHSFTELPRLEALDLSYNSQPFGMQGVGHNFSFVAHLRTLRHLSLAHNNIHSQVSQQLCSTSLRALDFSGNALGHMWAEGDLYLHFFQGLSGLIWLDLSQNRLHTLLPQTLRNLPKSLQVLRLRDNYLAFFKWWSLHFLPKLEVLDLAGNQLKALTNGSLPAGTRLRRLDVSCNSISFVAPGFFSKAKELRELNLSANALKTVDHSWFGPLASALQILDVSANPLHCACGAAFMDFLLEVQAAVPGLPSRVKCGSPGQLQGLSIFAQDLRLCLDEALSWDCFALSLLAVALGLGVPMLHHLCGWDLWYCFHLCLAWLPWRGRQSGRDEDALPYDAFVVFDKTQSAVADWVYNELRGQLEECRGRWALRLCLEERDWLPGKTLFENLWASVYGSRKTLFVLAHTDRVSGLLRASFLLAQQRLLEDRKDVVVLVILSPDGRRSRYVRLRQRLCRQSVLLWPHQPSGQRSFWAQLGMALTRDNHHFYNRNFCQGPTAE
MEASUREMENT NOTES: TLR9 inhibition reporter assay (HEK-Blue SEAP)
CONDITION INFO: HEK-Blue cells overexpressing human TLR9, stimulated with ODN2006 5 nM, 22 hour incubation
From the text: TLR7/8/9 Inhibition Reporter Assays HEK-Blue™-cells (Invivogen) overexpressing human TLR7, TLR8 or TLR9 receptors were used for screening inhibitors of these receptors using an inducible SEAP (secreted embryonic alkaline phosphatase) reporter gene under the control of the IFN-β minimal promoter fused to five NF-κB and AP-1-binding sites. […]
Under this convention, 1 denotes IC50 strictly below 3 µM and -1 denotes IC50 at or above 3 µM.

| COMPOUND | ASSIGNED LABEL |
| --- | --- |
| Cc1cc(-c2cc(C)c3ncnn3c2)cc2[nH]cc(C3CCNCC3)c12 [Example 2] | 1 |

Quick check: IC50 of Cc1cc2c(OC3CCNCC3)n[nH]c2cc1-c1cc(C)c2ncnn2c1 [Example 167] under 3 µM?
1

# repeat for Cc1cc2c(NC(=O)C3CCNCC3)n[nH]c2cc1-c1cc(C)c2ncnn2c1 [Example 202]
-1

Item: Cc1cc(-c2cc(C)c3ncnn3c2)cc2[nH]nc(OC3CCN(CC#N)CC3)c12 [Example 194]
1

What do we get for Cc1cc2c(C3CC(N(C)C)C3)n[nH]c2cc1-c1cc(C)c2ncnn2c1 (single isomer, unassigned) [Example 6] ?
-1

// query: Cc1cc2c(C3CCN(CCNS(C)(=O)=O)CC3)n[nH]c2cc1-c1cc(C)c2ncnn2c1 [Example 69]
1

Similarly, Cc1cc2c(C3CCCNC3)n[nH]c2cc1-c1cc(C)c2ncnn2c1 (centres unmarked) [Example 24] ?
1

What do we get for Cc1cc(-c2cc(C)c3ncnn3c2)cc2[nH]nc(OC3CCN(C4CCOCC4)CC3)c12 [Example 178] ?
1

Then CCc1cc2c(C3CCC(NCC(=O)N(C)C)CC3)n[nH]c2cc1-c1cc(C)c2ncnn2c1 (centres unmarked) [Example 95] ?
-1

Here is the next compound: COc1cc(-c2cc(C)c3ncnn3c2)cc2[nH]nc(C3CCNCC3)c12 [Example 86]
1

Would you kindly repeat that for Cc1cc(-c2cc(C)c3ncnn3c2)cc2[nH]nc(OC3CCC(NCC(=O)N(C)C)CC3)c12 (single isomer, unassigned) [Example 185] ?
1

Moving on to the next compound: Cc1cc(-c2cc3[nH]nc(C4CCC(N5CCC5)CC4)c3cc2C(C)C)cn2ncnc12 (single isomer, unassigned) [Example 138]
-1

Could you do the same for Cc1cc2c(C3CCC(NC4COC4)CC3)n[nH]c2cc1-c1cc(C)c2ncnn2c1 (single isomer, unassigned) [Example 35] , please?
-1

Please answer likewise for Cc1cc2c(C3CCCNC3)n[nH]c2cc1-c1cc(C)c(=O)n(C)c1 (centres unmarked) [Example 46]
1

And what about the compound Cc1cc2c(C3CCCN(CC(=O)N(C)C)C3)n[nH]c2cc1-c1cc(C)c2ncnn2c1 (centres unmarked) [Example 41] ?
-1

Another compound to look at: Cc1cc(-c2cc3[nH]nc(C4CCC(N5CC(OC(C)C)C5)CC4)c3cc2C(C)C)cn2ncnc12 (single isomer, unassigned) [Example 162]
-1

For Cc1cc(-c2cc(C)c3ncnn3c2)cc2[nH]nc(OC3CCN(Cc4cn(C)nn4)CC3)c12 [Example 193] then?
-1

Repeat with CCc1cc2c(C3CCN(CCC(F)(F)F)CC3)n[nH]c2cc1-c1cc(C)c2ncnn2c1 [Example 108]
-1

Ok, now Cc1cc(-c2cc3[nH]nc(C4CCC(N5CCC6(CCOC6)C5)CC4)c3cc2C(C)C)cn2ncnc12 (single isomer, unassigned) [Example 210]
-1

Same for Cc1cc(-c2cc(C)c3ncnn3c2)cc2[nH]nc(OC3CCN(C)CC3)c12 [Example 177]
1
